Examples of molecules with documented inhibition follow.
Tested on: Pseudomonas aeruginosa PAO1
protocol_text: Inhibition of PqsR in Pseudomonas aeruginosa PAO1 harboring GFP fused pqsA at 125 ug/ml measured every 15 mins for 6 to 8 hrs by reporter assay relative to control
assay_setup: dose 125.0 µg/ml, time 6-8 hrs
Just the number in %, nothing appended.

Some solved entries appear below for comparison.
- O=C1C=C(c2ccc(Br)cc2)/C(=C/Sc2ccccc2)N1: 52
- CCCS/C=C1\NC(=O)C=C1c1ccccc1F: 7
- CCCS/C=C1\NC(=O)C=C1c1ccc(Cl)cc1: 59
- O=C1C=C(c2ccccc2F)/C(=C/Sc2ccccc2)N1: 42
- CCCS/C=C1\NC(=O)C=C1c1ccccc1: 20

Exercise: Write down the reported inhibition of O=C1C=C(c2ccc(Br)cc2)/C(=C/Sc2ccc(Cl)cc2)N1 , test system: Pseudomonas aeruginosa PAO1.
Solution: 33

Exercise: Write down the reported inhibition of O=C1C=C(c2ccc(Br)cc2)/C(=C/Sc2ccccn2)N1 , test system: Pseudomonas aeruginosa PAO1.
Solution: 20

Exercise: Write down the reported inhibition of O=C1C=C(c2ccccc2)/C(=C/Sc2ccccc2)N1 , test system: Pseudomonas aeruginosa PAO1.
Solution: 52

Exercise: Write down the reported inhibition of O=C1C=C(c2ccccc2F)/C(=C/Sc2ccc(Cl)cc2)N1 , test system: Pseudomonas aeruginosa PAO1.
Solution: 55

Exercise: Write down the reported inhibition of O=C1C=C(c2ccccc2F)/C(=C/Sc2ccccn2)N1 , test system: Pseudomonas aeruginosa PAO1.
Solution: 40

Exercise: Write down the reported inhibition of O=C1C=C(c2ccccc2)/C(=C/Sc2ccccn2)N1 , test system: Pseudomonas aeruginosa PAO1.
Solution: 53

Exercise: Write down the reported inhibition of O=C1C=C(c2ccc(Cl)cc2)/C(=C/Sc2ccccn2)N1 , test system: Pseudomonas aeruginosa PAO1.
Solution: 18

----------
Test system: Pseudomonas aeruginosa PAO1
protocol_text: Inhibition of PqsR in Pseudomonas aeruginosa PAO1 harboring GFP fused pqsA at 125 ug/ml measured every 15 mins for 6 to 8 hrs by reporter assay relative to control
assay_setup: dose 125.0 µg/ml, time 6-8 hrs
Cut-off 50% on inhibition, inclusive. At or above means class 1; below means class 0.

- O=C1C=C(c2ccc(F)cc2)/C(=C/Sc2ccccc2)N1: class 0
- O=C1C=C(c2ccccc2)/C(=C/Sc2ccc(Cl)cc2)N1: class 0

Exercise: In plain terms: is recorded inhibition at least 50% for O=C1C=C(c2ccc(F)cc2)/C(=C/Sc2ccc(Cl)cc2)N1 ?
Solution: class 0

Exercise: In plain terms: is recorded inhibition at least 50% for O=C1C=C(c2ccc(Cl)cc2)/C(=C/Sc2ccc(Cl)cc2)N1 ?
Solution: class 0

Exercise: In plain terms: is recorded inhibition at least 50% for O=C1C=C(c2ccc(Cl)cc2)/C(=C/Sc2ccccc2)N1 ?
Solution: class 0

Exercise: In plain terms: is recorded inhibition at least 50% for O=C1C=C(c2ccc(F)cc2)/C(=C/Sc2ccccn2)N1 ?
Solution: class 1

Exercise: In plain terms: is recorded inhibition at least 50% for O=C1C=C(c2cccc(F)c2)/C(=C/Sc2ccccn2)N1 ?
Solution: class 0

Exercise: In plain terms: is recorded inhibition at least 50% for CCCS/C=C1\NC(=O)C=C1c1ccc(Br)cc1 ?
Solution: class 1

Cited source for all entries: ChEMBL document CHEMBL4680345
